Reference source: patent US7138361B2

tested on: crabgrass (Digitaria sanguinalis); experiment: Test C preemergence; format: in vivo; conditions: preemergence, Rate 500 g/ha, visual evaluation after 12 to 14 days
quantity-name: Plant response rating (0 to 100), Crabgrass
Give the figure only, with no unit attached.

q: State the recorded Plant response rating (0 to 100), Crabgrass for this entry: CC1(c2ccn(C3OCN(c4cccc(C(F)(F)F)c4)C3=O)n2)CC1 (centres unmarked)
a: 100

q: Same question for CCC(C)c1ccn(C2OCN(c3cccc(OC(F)(F)F)c3)C2=O)n1 (centres unmarked) please.
a: 100

q: Now the same for CCC(CC)c1ccn(C2CCN(c3cccc(OC(C)C)c3)C2=O)n1 (centres unmarked)
a: 100

q: Another: CCOc1cccc(N2CCC(n3ccc(C(C)C)n3)C2=O)c1 (centres unmarked)
a: 100

q: Now the same for CCCC(C)c1ccn(C2CCN(c3ccc(Cl)c(OC)c3)C2=O)n1 (centres unmarked)
a: 100

q: Now consider CCCC(C)c1ccn(C2OCN(c3cccc(C(F)(F)F)c3)C2=O)n1 (centres unmarked) .
a: 100

q: Then this molecule: Cc1ccc(N2CCC(n3ccc(C(C)(C)C)n3)C2=O)cc1I (centres unmarked)
a: 100

q: Another molecule to check: CC(C)Oc1cccc(N2CCC(n3ccc(C(C)C)n3)C2=O)c1 (centres unmarked)
a: 100

q: And for CSc1cccc(N2CCC(n3ccc(C(C)(C)C)n3)C2=O)c1 (centres unmarked) ?
a: 100

q: What do you have for CCC(CC)c1ccn(C2CCN(c3ccc(F)c(C(F)(F)F)c3)C2=O)n1 (centres unmarked) ?
a: 100

q: What would you report for CCC(C)c1ccn(C2OCN(c3cccc(OC(F)F)c3)C2=O)n1 (centres unmarked) ?
a: 100

---

Test system: blackgrass (Alopecurus myosuroides)
Assay: Test B postemergence
Type: in vivo
Details: Rate 500 g/ha, scale 0 to 100, 0 is no effect, 100 is complete control, 13 to 15 days
Protocol: […] At the same time, plants selected from these crop and weed species and also blackgrass (Alopecurus myosuroides), wheat (Triticum aestivum) and wild oat (Avena fatua) were treated with postemergence applications of test chemicals formulated in the same manner. […] Treated plants and controls were maintained in a greenhouse for 13 to 15 days, after which time all species were compared to controls and visually evaluated. […]
Each entry below carries its recorded Plant response rating, Blackgrass.
Form: value (number only, do not type unit).

Use these answered entries as a reference point.
q: Form field: reported Plant response rating, Blackgrass of CCOc1cccc(N2CCC(n3ccc(C(C)(C)C)n3)C2=O)c1 (stereo not drawn)
a: 20

q: What about O=C1C(n2ccc(C3CCCCC3)n2)SCN1c1cccc(OC(F)(F)F)c1 (stereo not drawn) ?
a: 0

Now consider a different molecule.
q: GET /values?readout=Plant response rating, Blackgrass&item= CCCC(C)c1ccn(C2CCN(c3ccc(Cl)c(OC)c3)C2=O)n1 (stereo not drawn)
a: 0

---

system: johnsongrass (Sorghum halepense); test: Test C preemergence; type: in vivo; settings: preemergence; Rate 250 g/ha; scale 0 to 100, 0 no effect, 100 complete control
This listing pairs compounds with measured Plant response rating, Johnsongrass.
Field format: numeric only.

// below: answered compounds
q: Give the reported Plant response rating, Johnsongrass for CCC(CC)c1ccn(C2OCN(c3cccc(OC(F)F)c3)C2=O)n1 (stereo not shown) (system: johnsongrass (Sorghum halepense)).
a: 80

q: Likewise for CCCC(C)c1ccn(C2SCN(c3cccc(C(F)(F)F)c3)C2=O)n1 (stereo not shown) ?
a: 70

q: Likewise for CCC(C)c1ccn(C2CCN(c3cccc(OC)c3)C2=O)n1 (stereo not shown) ?
a: 60

***
q: Item: CCOc1cc(N2CCC(n3ccc(C(C)(C)C)n3)C2=O)ccc1C (stereo not shown) Test system: johnsongrass (Sorghum halepense) Read-out: Plant response rating, Johnsongrass Value: ?
a: 100
